Here the recorded cytotoxicity at 70.5 h is given for each entry.
PROCEDURE_TEXT: Human HepG2 cell viability assay in 384 well format
Type: toxicity, cell-based
Design: dose 125 nL, time 70.5 hour; concentration not given beside the values
EXPERIMENTAL_SETUP: HepG2 cells, read-out: Inhibition

Take a look at these entries with their results.
molecule=Cc1ccc(=O)n(CC2(O)CCN(Cc3cnn(C)c3)CC2)n1 measured_endpoint="cytotoxicity at 70.5 h" result=-3.09%
molecule=C[C@@H]1CN(C(=O)c2nc3sccn3c2-c2ncc[nH]2)C[C@H](C)O1 measured_endpoint="cytotoxicity at 70.5 h" result=-7.22%
molecule="CC(NC(=O)N1CCc2ccccc21)c1nncn1C (stereo unspecified)" measured_endpoint="cytotoxicity at 70.5 h" result=-12.2%
molecule="CC(C)CC(=O)N1CCCC2(CC(C(=O)Nc3ccccc3)=NO2)C1 (stereo unspecified)" measured_endpoint="cytotoxicity at 70.5 h" result=-0.967%
molecule=Cc1cc(C)n(C2CN(CC(=O)N(C)Cc3ccsc3)C2)n1 measured_endpoint="cytotoxicity at 70.5 h" result=-1.75%

Q: Looking for the measured cytotoxicity at 70.5 h of `Cc1ccccc1CC(C)(C)NC(=O)CCOc1cccc(C(N)=O)c1` , can you help?
Ans: 4.51%

Q: Looking for the measured cytotoxicity at 70.5 h of `CC(C)S(=O)(=O)NC(=O)c1cc(-c2cccc(Cl)c2)no1` , can you help?
Ans: -11.8%

Q: Looking for the measured cytotoxicity at 70.5 h of `CCc1nnsc1C(=O)NCCc1nnc2n1CCC2` , can you help?
Ans: -7.69%

Q: Looking for the measured cytotoxicity at 70.5 h of `Cc1noc(C)c1CN1CCC(NC(=O)OC(C)(C)C)CC1` , can you help?
Ans: -0.745%

###

PROCEDURE_TEXT: Human HepG2 cell viability assay in 384 well format
Format: toxicity, cell-based
Design: dose 125 nL, time 70.5 hour; concentration not given beside the values
EXPERIMENTAL_SETUP: HepG2 cells, read-out: Inhibition
Here the recorded cytotoxicity at 70.5 h is given for each entry.
Please state the figure in %; there is no need to write the unit.

compound="O=C(NCc1cncc2c1CCN(CC1CCOC1)C2)c1ccno1 (stereo unspecified)" value_unit=% result_number=-6.93

Q: Looking for the measured cytotoxicity at 70.5 h of `Cc1ccc(C(=O)N2[C@@H]3CC[C@H]2CN(C)C(=O)C3)c(=O)[nH]1` , can you help?
Ans: -8.22

Q: Looking for the measured cytotoxicity at 70.5 h of CCc1nc(CN(C(C)=O)C2CCN(Cc3cnc(C)cn3)C2)no1 (stereo unspecified) , can you help?
Ans: 23.6

###

PROCEDURE_TEXT: Human HepG2 cell viability assay in 384 well format
Format: toxicity, cell-based
Set-up: dose 125 nL, time 70.5 hour; concentration not given beside the values
EXPERIMENTAL_SETUP: HepG2 cells, read-out: Inhibition
MEASURED_ENDPOINT: cytotoxicity at 70.5 h (%)
Please state the figure in %; there is no need to write the unit.

Q: Looking for the measured cytotoxicity at 70.5 h of CCn1c(C(=O)N2CCN(CC(C)O)CC2)cc2ccccc21 (configuration not stated) , can you help?
Ans: 21.6

Q: Looking for the measured cytotoxicity at 70.5 h of `Cc1nccc([C@@H]2C[C@@H]3CCN(Cc4cccs4)C[C@H]3O2)n1` , can you help?
Ans: 4.44

Q: Looking for the measured cytotoxicity at 70.5 h of CN1CCC(C(=O)N2CCN(Cc3cccc(Cl)c3)CC2)CC1=O (configuration not stated) , can you help?
Ans: 3.2

Q: Looking for the measured cytotoxicity at 70.5 h of O=C(Nc1ccccc1)C1CN(C(=O)c2cccs2)CC12CCOCC2 (configuration not stated) , can you help?
Ans: -0.505

Q: Looking for the measured cytotoxicity at 70.5 h of `CCn1ccnc1CN1CCN(c2ncnc3ccccc23)CC1` , can you help?
Ans: -2.5

Q: Looking for the measured cytotoxicity at 70.5 h of `O=C(c1ccoc1)N1C[C@@H]2[C@@H](C1)OCC(=O)N2Cc1cccnc1` , can you help?
Ans: -3.91

Q: Looking for the measured cytotoxicity at 70.5 h of CCN1C(=O)CCC12CCCN(Cc1ccc(F)cc1)CC2 (configuration not stated) , can you help?
Ans: -9.34

Q: Looking for the measured cytotoxicity at 70.5 h of `Cc1c(CNS(=O)(=O)c2cccc(COC(C)C)c2)cnn1C` , can you help?
Ans: -5.71

Q: Looking for the measured cytotoxicity at 70.5 h of COc1ccc(OC)c(C2CC(=O)Nc3nc(N4CCOCC4)sc32)c1 (configuration not stated) , can you help?
Ans: 4.11

Q: Looking for the measured cytotoxicity at 70.5 h of `CN1CCCN(C[C@H]2C[C@H](CO)CN(Cc3cccnc3N)C2)CC1` , can you help?
Ans: 22.4
